Provenance of the data: PubChem BioAssay (Tox21)

target: Acetylcholinesterase (Homo sapiens); experiment: Acetylcholinesterase (AChE) small molecule antagonists: colormetric cell-based qHTS assay (AID 1347395); settings: SH-SY5Y cells AChE activity, colorimetric (Ellman); series mostly up to 115 µM; note: nearly all actives have a fitted effect of over 30% in size
Inconclusive results are not listed. Active and inactive are the calls of the source. Calls come from the whole dose curve.
Readout Kind: outcome

INSERT INTO results (mol_smiles, readout_kind, result) VALUES
  ('CCCCCCCCCCCCCc1ccccc1', 'outcome', 'inactive'),
  ('O=C(Nc1ccccc1)c1ccccc1O', 'outcome', 'inactive'),
  ('COC(=O)[C@H]1[C@H]2C[C@@H]3c4[nH]c5cc(OC)ccc5c4CCN3C[C@H]2C[C@@H](OC(=O)COc2ccc(OC)cc2)[C@@H]1OC', 'outcome', 'inactive'),
  ('COc1cc(Cl)c(OC)cc1N', 'outcome', 'inactive'),
  ('CC1=C(/C=C/C(C)=C/C=C/C(C)=C\C(=O)O)C(C)(C)CCC1', 'outcome', 'inactive');

Now for another entry.
Q: // lookup outcome for CC(=O)N(c1onc(C)c1C)S(=O)(=O)c1ccc(N)cc1
Ans: inactive
